- Tested on: Bacteroides caccae
- EXPERIMENTAL_PROTOCOL: growth AUC relative to DMSO control (median of replicates) (fraction); higher = more growth (less inhibition), active = hit call of the paper
- ASSAY_SETUP: 20 µM; 24 h
Label YES when growth AUC is at or above 1; otherwise label NO.

Solved entries (count: 3):
MOLECULE: CCCCC(CC)COC(=O)COc1cc(Cl)c(Cl)cc1Cl (configuration not stated)
GROUP: NO

MOLECULE: CCc1cccc(C)c1N(C(=O)C(=O)O)C(C)COC (configuration not stated)
GROUP: YES

MOLECULE: CC(C)OC(=O)[C@@H](C)N(C(=O)c1ccccc1)c1ccc(F)c(Cl)c1
GROUP: NO

Ask: // inclusive: growth AUC at least 1? input: `CC(=O)Oc1c(Cl)c(Cl)c(Cl)c(Cl)c1Cl`
Result: NO

Ask: // inclusive: growth AUC at least 1? input: `N#Cc1c(N)nc(NC2CC2)nc1N`
Result: YES

Ask: // inclusive: growth AUC at least 1? input: `COc1c(I)cc(C#N)cc1I`
Result: NO

====

- Tested on: Fusobacterium nucleatum subsp. animalis
- EXPERIMENTAL_PROTOCOL: growth AUC relative to DMSO control (median of replicates) (fraction); higher = more growth (less inhibition), active = hit call of the paper
- ASSAY_SETUP: 20 µM; 24 h
molecules and their reported growth AUC
Enter a number only.

Answered cases to consult:
MOLECULE: CCCCCCC(C)OC(=O)COc1nc(F)c(Cl)c(N)c1Cl (stereo unspecified)
REPORTED_MEASUREMENT: 0.935
//
MOLECULE: CCCOc1nc2ccc(I)cc2c(=O)n1CCC
REPORTED_MEASUREMENT: 0.973
//
MOLECULE: CCOC(=O)C(C)Oc1ccc(Oc2cnc3cc(Cl)ccc3n2)cc1 (stereo unspecified)
REPORTED_MEASUREMENT: 1.03
//
MOLECULE: N[C@@H](Cc1cc(I)c(Oc2cc(I)c(O)c(I)c2)c(I)c1)C(=O)O
REPORTED_MEASUREMENT: 0.838
//
MOLECULE: CC(C)N(C(=O)CS(=O)(=O)[O-])c1ccc(F)cc1.[Na+]
REPORTED_MEASUREMENT: 0.956

Ask: # input molecule: `CN(C)C(=O)SCCCCOc1ccccc1` ; wanted: its growth AUC
Result: 0.958

Ask: # input molecule: `O=C(NC(=O)c1c(F)cccc1F)Nc1cc(C(F)(F)F)cc(C(F)(F)F)c1Cl` ; wanted: its growth AUC
Result: 0.989

Ask: # input molecule: `S=C([S-])NCCNC(=S)[S-].[Zn+2]` ; wanted: its growth AUC
Result: 0.978

====

- Tested on: Fusobacterium nucleatum subsp. animalis
- EXPERIMENTAL_PROTOCOL: growth AUC relative to DMSO control (median of replicates) (fraction); higher = more growth (less inhibition), active = hit call of the paper
- ASSAY_SETUP: 20 µM; 24 h
QUANTITY_KIND: growth AUC
Enter a number only.

Answered cases to consult:
MOLECULE: CC(C)N(C(=O)C(=O)O)c1ccccc1
growth AUC: 1.09
//
MOLECULE: CN(C)C(=O)NC1CCCCCCC1
growth AUC: 1.04
//
MOLECULE: Oc1ccc2ccccc2c1N=Nc1ccccc1
growth AUC: 1
//
MOLECULE: NC(=S)Nc1cccc2ccccc12
growth AUC: 0.924
//
MOLECULE: CCc1cc(C(=O)O)cc(CC)c1C1C(=O)N2CCOCCN2C1=O
growth AUC: 1.11

Ask: # input molecule: `COc1cc(OC)nc(NC(=O)NS(=O)(=O)c2c(-c3nnn(C)n3)cnn2C)n1` ; wanted: its growth AUC
Result: 1.02

Ask: # input molecule: `C=O` ; wanted: its growth AUC
Result: 1

Ask: # input molecule: `COC(=O)CSc1cc(N=c2sc(=O)n3n2CCCC3)c(F)cc1Cl` ; wanted: its growth AUC
Result: 1.03
